measurement.target: IMP-1 (Serratia marcescens, UniProt P52699)
Sequence (P52699 19-246, looked up, species assumed): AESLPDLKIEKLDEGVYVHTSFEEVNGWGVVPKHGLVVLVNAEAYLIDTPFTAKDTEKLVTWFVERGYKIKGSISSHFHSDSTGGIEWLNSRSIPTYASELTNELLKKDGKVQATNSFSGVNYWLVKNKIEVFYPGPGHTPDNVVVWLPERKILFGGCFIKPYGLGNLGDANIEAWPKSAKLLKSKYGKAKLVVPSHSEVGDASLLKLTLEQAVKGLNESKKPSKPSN
experiment: Inhibition of imipenem cleavage by purified IMP-1
Type: biochemical
experimental.setup: imipenem reporter substrate; 37° C.; read-out: Ki (IMP-1, IMI)
pKi: −log10 of the molar value.
Please provide measured pKi for the entries that follow.

Value of pKi reported for the compound COc1ccc2c(c1C(=O)O)OB(O)C1=C2COC1 is < 6.00

Item: C[C@]1(Cn2ccnn2)[C@H](C(=O)O)N2C(=O)C[C@H]2S1(=O)=O [Tazobactam, reference compound] | pKi: < 6.00

// pKi value for O=C(O)c1c(F)ccc2c1OB(O)[C@@H]1C[C@H]21 : 6.00 to 7.00

Entry COc1ccc2c(c1C(=O)O)OB(O)C(F)=C2 ; pKi = < 6.00

Measured pKi of COc1ccc2c(c1C(=O)O)OB(O)C1CC21 (centres unmarked) : > 7.00

// field: pKi; key: COc1ccc2c(c1C(=O)O)OB(O)C1C2[C@H]2C=C[C@@H]1C2 (some centres unmarked) ; value = < 6.00

Per the records, this compound ( O=C(O)c1c(OCCF)ccc2c1OB(O)C1CC21 (centres unmarked) ) has pKi equal to > 7.00

// sample O=C(O)[C@H]1/C(=C/CO)O[C@@H]2CC(=O)N21 [Clavulanic Acid, reference compound] , its pKi was < 6.00

response.value for O=C(O)c1cccc2c1OB(O)CC21CC1 (field: pKi) = < 6.00

Given item COc1ccc2c(c1C(=O)O)OB(O)C1C2C1(F)F (centres unmarked) , the value recorded as its pKi is < 6.00

// O=C(O)c1c(F)ccc2c1OB(O)CC21CC1 : pKi value = < 6.00

Lab note: measured pKi of COc1ccc2c(c1C(=O)O)OB(O)[C@@H]1C[C@H]21 was > 7.00

Item: COc1ccc2c(c1C(=O)O)OB(O)[C@H]1C[C@@H]21 | pKi: < 6.00

Memo: COc1ccc2c(c1C(=O)O)OB(O)C1C2[C@H]2CC[C@@H]1C2 (some centres unmarked) , reported pKi: > 7.00
